Molecular target: MASP-2 CCP2-SP (Homo sapiens (Human), UniProt O00187)
Sequence (O00187 445-686): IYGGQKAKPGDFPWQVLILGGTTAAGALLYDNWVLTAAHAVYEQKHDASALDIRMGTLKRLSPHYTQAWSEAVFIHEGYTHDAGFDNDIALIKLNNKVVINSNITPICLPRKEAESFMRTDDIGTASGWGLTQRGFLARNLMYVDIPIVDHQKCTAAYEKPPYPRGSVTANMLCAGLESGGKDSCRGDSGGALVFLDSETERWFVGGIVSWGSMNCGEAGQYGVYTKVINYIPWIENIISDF
Sequence (O00187 364-432 partner): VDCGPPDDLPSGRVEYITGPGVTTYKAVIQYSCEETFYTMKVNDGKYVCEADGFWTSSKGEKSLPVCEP
Experiment: MASP-2 co-crystallization, X-ray crystallography and structure analysis (H-bonds, van der Waals contacts)
Conditions: Table A2-3
Counter-ions that a name gives are not always drawn.
QUANTITY_KIND: van der Waals contact distance, MASP-2 PHE 529 atom CD1

• C[C@H](NC(=O)[C@H](N)CCc1ccccc1)C(=O)NCc1ccc(N)nc1 = 3.83
• Cc1nc(N)ccc1CNC(=O)[C@H](C)NC(=O)[C@H]1C[C@H](Cc2cccc(Cl)c2)CN1 = 3.78
• C[C@H](NC(=O)[C@@H](CCc1ccccc1)NCCCc1ccc(O)cc1)C(=O)NCc1ccc(C(=N)N)cc1 = 3.54
• Cc1cccc([C@H]2CN[C@@H](C(=O)N[C@@H](C)C(=O)NCc3ccc(N)nc3C)C2)c1 [compound 1257, Dihydrochloride] = 3.89

* * *

Target: MASP-2 CCP2-SP (Homo sapiens (Human))
Assay: MASP-2 co-crystallization, X-ray crystallography and structure analysis (H-bonds, van der Waals contacts)
Details: Table A1 (H-Bonds); SER 628 O
Excerpt: This example illustrates the preparation of recombinant MASP-2 protein, based on UniProt O00187, human mannan-binding lectin serine protease 2. Expression constructs for human MASP-2 CCP2-SP and CCP2-SP-6HIS were generated for recombinant expression in E. coli cells. […]
Where a name gives a salt, the structure may show the parent alone.
QUANTITY_KIND: H-bond distance to MASP-2 SER 628 atom O

- C[C@H](NC(=O)[C@H](N)CCc1ccccc1)C(=O)NCc1ccc(C(=N)N)cc1: 2.79
- N=C(N)c1ccc(CNC(=O)[C@@H]2CCN2C(=O)[C@H]2Cc3ccccc3CN2)cc1: 2.91
- C[C@H](NC(=O)[C@@H](CCc1ccccc1)NCCCc1ccc(O)cc1)C(=O)NCc1ccc(C(=N)N)cc1: 2.84
- Cc1cccc([C@H]2CN[C@@H](C(=O)N[C@@H](C)C(=O)NCc3ccc(N)nc3C)C2)c1 [compound 1257, Dihydrochloride]: 3.12
- Cc1nc(N)ccc1CNC(=O)[C@H](C)NC(=O)[C@H]1C[C@H](Cc2ccccc2-c2ccccc2)CN1 [compound 1373, Di-trifluoroacetate salt]: 3.18
- CC(=O)Nc1ccc(CCN[C@H](CCc2ccccc2)C(=O)N[C@@H](C)C(=O)NCc2ccc(C(=N)N)cc2)cc1: 2.64
- Cc1nc(N)ccc1CNC(=O)C(C)NC(=O)[C@H]1C[C@H](c2cccc(-c3ccccc3)c2)CN1 (stereo in doubt): 3.18

* * *

Below, each entry is listed alongside its reported d(N2,C2).
Molecular target: UniProt:O00187
Experiment: MASP-2 co-crystallization, X-ray crystallography and structure analysis (H-bonds, van der Waals contacts)
Set-up: unit not given beside the values
Conditions: Table A5-2 pharmacophore distance, S3/S4 region
Structures can show the parent of a compound that is named as a salt.
QUANTITY_KIND: d(N2,C2)

* Cc1nc(N)ccc1CNC(=O)C(C)NC(=O)C1CC(c2cccc3ccccc23)CCN1.Cl.Cl (stereo not drawn) [1297_6] | 1.44
* C[C@H](NC(=O)[C@H]1C[C@@H](c2ccccc2)CCN1)C(=O)NCc1ccc(C(=N)N)cc1 (stereo in doubt) | 1.40
* C[C@H](NC(=O)[C@H]1C[C@@H](c2ccccc2)CCN1)C(=O)NCc1cc(Cl)ccc1O.Cl [1078_3] | 1.45
* C[C@H](NC(=O)[C@H]1C[C@@H](c2ccccc2)CCN1)C(=O)NCc1cc(Cl)ccc1O.Cl [1078_4] | 1.51
* Cc1nc(N)ccc1CNC(=O)[C@H](C)NC(=O)[C@H]1C[C@@H](Cc2ccccc2)CCN1 | 1.45
* C[C@H](NC(=O)[C@H]1Cc2c([nH]c3ccccc23)CN1)C(=O)NCc1ccc(C(=N)N)cc1.Cl.Cl [1097_2] | 1.42
* C[C@H](NC(=O)[C@H]1C[C@@H](c2ccccc2)CCN1)C(=O)NCc1cc(Cl)ccc1O.Cl [1078_9] | 1.46
* Cc1nc(N)ccc1CNC(=O)C(C)NC(=O)C1CC(c2cccc3ccccc23)CCN1.Cl.Cl (stereo not drawn) [1297_1] | 1.44
* Cc1nc(N)ccc1CNC(=O)C(C)NC(=O)C1CC(c2cccc3ccccc23)CCN1.Cl.Cl (stereo not drawn) [1297_3] | 1.43
* Cc1nc(N)ccc1CNC(=O)[C@H](C)NC(=O)[C@H]1C[C@@H](c2ccccc2)CCN1CCC(=O)O [compound 1411, Trifluoroacetate salt] | 1.46
* C[C@H](NC(=O)[C@H]1C[C@@H](c2ccccc2)CCN1)C(=O)NCc1cc(Cl)ccc1O.Cl [1078_13] | 1.47
* C[C@H](NC(=O)[C@H]1C[C@@H](c2ccccc2)CCN1)C(=O)NCc1cc(Cl)ccc1O.Cl [1078_2] | 1.44
* Cc1nc(N)ccc1CNC(=O)[C@H](C)NC(=O)[C@H]1C[C@@H](c2ccccc2)CCN1C | 1.45
* C[C@H](NC(=O)[C@H]1C[C@@H](c2ccccc2)CCN1)C(=O)NCc1cc(Cl)ccc1O.Cl [1078_11] | 1.47
* C[C@H](NC(=O)[C@H](N)C1Cc2ccccc2C1)C(=O)NCc1ccc2c(N)nccc2c1.Cl.Cl [1088_B] | 3.90
* Cc1nc(N)ccc1CNC(=O)[C@H](C)NC(=O)[C@H]1C[C@@H](c2cccc3ccccc23)CCN1.Cl.Cl [1297_2] | 1.47
* N=C(N)c1ccc(CNC(=O)[C@@H]2CCN2C(=O)[C@H](NCC(=O)O)C2Cc3ccccc3C2)cc1 | 2.76
* C[C@H](NC(=O)[C@H]1C[C@@H](c2ccccc2)CCN1)C(=O)NCc1cc(Cl)ccc1O.Cl [1078_5] | 1.45
* C[C@H](NC(=O)[C@H]1C[C@@H](c2ccccc2)CCN1)C(=O)NCc1cc(Cl)ccc1O.Cl [1078_1] | 1.48
* C[C@H](NC(=O)[C@H](N)C1Cc2ccccc2C1)C(=O)NCc1ccc2c(N)nccc2c1.Cl.Cl [1088_A] | 3.41
* C[C@H](NC(=O)[C@@H](CCc1ccccc1)NCc1ccc(C(=O)N2CCOCC2)cc1)C(=O)NCc1ccc(C(=N)N)cc1.Cl.Cl | 8.53
* C[C@H](NC(=O)[C@H]1C[C@@H](c2ccccc2)CCN1)C(=O)NCc1cc(Cl)ccc1O.Cl [1078_16] | 1.49
* C[C@H](NC(=O)[C@H]1Cc2c([nH]c3ccccc23)CN1)C(=O)NCc1ccc(C(=N)N)cc1.Cl.Cl [1097_1] | 1.42
* N=C(N)c1ccc(CNC(=O)[C@@H]2CCN2C(=O)[C@H]2Cc3ccccc3CN2)cc1 | 2.26
* C[C@H](NC(=O)[C@H](N)CCCc1ccccc1)C(=O)NCc1ccc(C(=N)N)cc1.Cl.Cl [1042_3] | 3.55
* CC(NC(=O)C(CCc1ccccc1)NCc1ccc(C(=O)N2CCOCC2)cc1)C(=O)NCc1ccc(C(=N)N)cc1.Cl.Cl (stereo not drawn) | 8.34
* C[C@H](NC(=O)[C@H]1C[C@@H](c2ccccc2)CCN1)C(=O)NCc1cnc2[nH]cc(Cl)c2c1 | 1.51
* Cc1nc(N)ccc1CNC(=O)[C@H](C)NC(=O)[C@H]1C[C@@H](c2cccc3ccccc23)CCN1.Cl.Cl [1297_5] | 1.43
* C[C@H](NC(=O)[C@H]1C[C@@H](c2ccccc2)CCN1)C(=O)NCc1cc(Cl)ccc1O.Cl [1078_10] | 1.48
* C[C@H](NC(=O)[C@H]1C[C@@H](c2ccccc2)CCN1)C(=O)NCc1cc(Cl)ccc1O.Cl [1078_6] | 1.49

Numbers sourced from patent US12195427B2.
